- target.or.test.system: DNA-PK (Homo sapiens (Human))
measured.property: IC50
Express your answer as a number followed by its unit.

| structure.notation | target.or.test.system | IC50 |
| --- | --- | --- |
| Cc1cc2ncnn2cc1Nc1ncc2c(n1)N1C(=NCC13CCC(F)(F)CC3)N2C | DNA-PK (Homo sapiens (Human)) | 1.63 nM |
| Cc1cc2ncnn2cc1Nc1ncc2c(n1)N1C(=NC[C@]13CCCOCC3)N2C | DNA-PK (Homo sapiens (Human)) | 1.7 nM |

Now let's try a different one.
Exercise: What value of measured IC50 is listed for `Cc1cc2ncnn2cc1Nc1ncc2c(n1)N1C(=NCC13CCSCC3)N2C` ?
Solution: 0.89 nM

====

Please provide measured pIC50 for the entries that follow.
- target.or.test.system: DNA-PK (Homo sapiens (Human), UniProt P78527)
Answers are plain numbers, as −log10 of the molar value.

| molecule | target.or.test.system | pIC50 |
| --- | --- | --- |
| Cc1cc2ncnn2cc1Nc1ncc2c(n1)N1C(=NCC13CC[S+]([O-])CC3)N2C (centres unmarked) [Compound 20] | DNA-PK (Homo sapiens (Human), UniProt P78527) | 7.73 |

Hi, could you look up pIC50 for each item in my list?
1. Cc1cc2ncnn2cc1Nc1ncc2c(n1)N1C(=NCC13CCC(=O)CC3)N2C [Compound 6]
2. Cc1cc2ncnn2cc1Nc1ncc2nc3n(c2n1)C1(CCOCC1)CN3 [Compound 3]
3. Cc1cc2ncnn2cc1Nc1ncc2c(n1)N1C(=NCC13CCOC3)N2C (centres unmarked) [Compound 18]
4. Cc1cc2ncnn2cc1Nc1ncc2c(n1)N1C(=NCC1(C)CCO)N2C (centres unmarked) [Compound 17]
5. Cc1cc2ncnn2cc1Nc1ncc2c(n1)N1C(=NC[C@@]13CCCOCC3)N2C [Compound 19-1]

Solution:
1: 8.32; 2: 7.97; 3: 8.85; 4: 8.01; 5: 8.96

Hi there! I need pIC50 for each item below, if you can.
1. Cc1cc2ncnn2cc1Nc1ncc2c(n1)N1C(=NCC13CCOCC3)N2C [Compound 1]
2. COC1CCC2(CC1)CN=C1N(C)c3cnc(Nc4cn5ncnc5cc4C)nc3N12 (single isomer, unassigned) [Compound 16-2]

Solution:
1. 9.09
2. 8.66
